Test: gradient 5% acetonitrile 3 min, to 50% in 2 min, to 85% in 15 min, held 3 min, 100 µL/min
Settings: column: Zorbax Extend-C18 2.1 x 50 mm; eluents: water / acetonitrile, 0.1% formic acid
measured endpoint: RP-LC retention time (s)

These recorded examples may help you get a feel for the data.
{"columns": ["compound", "RP-LC retention time / s"],
 "data": [
  ["Cc1occc1C(=O)N1CC(c2nc(CCN(C)C(=O)C3CC3)no2)C1", 661],
  ["CC1CCCN(CCCNC(=O)c2ccc3c(c2)NC(=O)C2CCCN32)C1 (centres undefined)", 579],
  ["Cc1ccc2c(c1)N(S(C)(=O)=O)CCC(C(=O)Nc1ccc(Br)cc1)O2 (centres undefined)", 1020],
  ["Cc1ccc2oc(C(=O)NCCc3cccs3)cc2n1", 640],
  ["COc1cccc(C(=O)NC2CCN(c3cc(-c4ccc(Cl)cc4)[nH]n3)C2)c1OC (centres undefined)", 807],
  ["CCCCCNC(=O)c1sc2ncccc2c1-n1cccc1", 1080],
  ["COc1ccc(C)cc1NS(=O)(=O)c1cc2c3c(c1)CCC(=O)N3CCC2", 973],
  ["COc1ccc(Cl)cc1N1CC(c2nc(-c3cccs3)no2)CC1=O (centres undefined)", 930]
]}

(I) CCc1nc(-c2csc(S(=O)(=O)N3CCC(C(=O)Nc4cc(C)ccn4)CC3)c2)no1
(II) COC(=O)c1ccc(OC)c(Cn2cnc3c(-c4ccc(C)cc4)csc3c2=O)c1
Query: Lower value for measured RP-LC retention time? Options: I , II Mark your answer with the label of the selected entry.
Reply: I
(I: 749 s, II: 1070 s)
